- ASSAY DETAILS: NCI Yeast Anticancer Drug Screen. Data for the mec2-1 strain (AID 157)
- CONDITION DESCRIPTION: S. cerevisiae mec2-1 strain, at 5.0 µM (retest, dose inferred, filed as 0.5), hits give high values
The panel holds about 79,000 compounds, 15% with a hit somewhere; the sample as a whole holds those more often. Active and inactive are the calls of the source. Rule as the data show it: active = growth inhibition above about 70%; inactive = the rest.
RECORDED ENDPOINT: growth inhibition

Prompt line: Provide only the value of recorded growth inhibition for CN(C)CC(CN(C)C)C(=O)c1ccc2c(c1)OCO2
Response line: -15% (inactive)

Prompt line: Provide only the value of recorded growth inhibition for NCc1ccc(O)c(O)c1O
Response line: 8% (inactive)

Prompt line: Provide only the value of recorded growth inhibition for CCCCCN(C(=O)CCl)c1ccccc1
Response line: -3% (inactive)

Prompt line: Provide only the value of recorded growth inhibition for CSc1nc(NC2OC(CO)C(O)C(O)C2O)c(Cl)c(=O)[nH]1 (configuration not stated)
Response line: 0% (inactive)

Prompt line: Provide only the value of recorded growth inhibition for CC(C)/C(Cl)=N/OC(NC(=O)Nc1ccc(Cl)c(Cl)c1)(C(F)(F)F)C(F)(F)F
Response line: 9% (inactive)

Prompt line: Provide only the value of recorded growth inhibition for Cc1ccc2c(c1)C1(SC(CC(=O)O)C(=O)N1c1ccc(Cl)cc1)C(=O)N2 (configuration not stated)
Response line: 0% (inactive)

Prompt line: Provide only the value of recorded growth inhibition for Nc1nc(N)c2nc(Sc3ccc(F)cc3)c(N)nc2n1
Response line: -1% (inactive)

Prompt line: Provide only the value of recorded growth inhibition for CSc1ccc(/C=C2/C[N+](C)(C)C/C(=C/c3ccc(SC)cc3)C2=O)cc1
Response line: 22% (inactive)

Prompt line: Provide only the value of recorded growth inhibition for COc1ccc(CCNC(=S)/N=C\C(C(=O)c2ccccc2)=C(\O)c2ccccc2)cc1OC
Response line: 0% (inactive)

Prompt line: Provide only the value of recorded growth inhibition for O=S(=O)(c1cc(Br)ccc1O)c1cc(Br)ccc1O
Response line: 99% (active)

Prompt line: Provide only the value of recorded growth inhibition for CCOc1ccc2c(c1)n([O-])c1ccccc1[n+]2=O
Response line: 12% (inactive)

Prompt line: Provide only the value of recorded growth inhibition for O=C(/C=C/c1ccccc1Cl)c1ccc(F)cc1
Response line: -12% (inactive)

Prompt line: Provide only the value of recorded growth inhibition for N#CSC#Cc1ccc(C#CSC#N)cc1
Response line: 100% (active)

Prompt line: Provide only the value of recorded growth inhibition for C/C=C(\C)C(=O)OC1C2C(C)=CC(=O)C(O)C2(C)C2C3(O)OCC24C1OC(=O)C(O)C4C(C)C3O (configuration not stated)
Response line: 15% (inactive)

Prompt line: Provide only the value of recorded growth inhibition for CS(=O)(=O)OCCN(CCOS(C)(=O)=O)c1ccc(C=Nc2ccc(-c3cnc(-c4ccc(Cl)cc4)s3)cc2)c(Cl)c1
Response line: -3% (inactive)

Prompt line: Provide only the value of recorded growth inhibition for COc1ccc(-c2csc(C)n2)cc1OC
Response line: 2% (inactive)

Prompt line: Provide only the value of recorded growth inhibition for CC(C)NC(=O)OCCS(=O)c1c(Cl)c(Cl)nn1C (configuration not stated)
Response line: 11% (inactive)

Prompt line: Provide only the value of recorded growth inhibition for Nc1c(NCc2ccccc2)ccc2ncccc12
Response line: -17% (inactive)

Prompt line: Provide only the value of recorded growth inhibition for CCCCC1(C(O)CC)Sc2ccccc2N1C (configuration not stated)
Response line: 2% (inactive)

Prompt line: Provide only the value of recorded growth inhibition for O=C(O)CCCNc1ncc2c(n1)-c1ccccc1OC2
Response line: 11% (inactive)

Prompt line: Provide only the value of recorded growth inhibition for N#C/C(=C\c1cc(Cl)cc(Cl)c1O)C(/C(C#N)=C/c1cc(Cl)cc(Cl)c1O)c1ccc2c(c1)OCO2 (configuration not stated)
Response line: 48% (inactive)

Prompt line: Provide only the value of recorded growth inhibition for COc1ccccc1NC(=O)C1=CNC(C)=C(C(=O)Nc2ccccc2OC)C1/C=C/c1ccccc1 (configuration not stated)
Response line: -4% (inactive)
